Below, each entry is listed alongside its reported EC50.
Target: T1, Full length human CD40 (huCD40) on cells (human, UniProt P25942 21-277)
T1 construct: CD40 on human mature DCs, human B cells, Raji cells and HEK-Blue CD40L cells (stably expressing human CD40); also called TNFRSF5
T1 sequence (P25942 21-277): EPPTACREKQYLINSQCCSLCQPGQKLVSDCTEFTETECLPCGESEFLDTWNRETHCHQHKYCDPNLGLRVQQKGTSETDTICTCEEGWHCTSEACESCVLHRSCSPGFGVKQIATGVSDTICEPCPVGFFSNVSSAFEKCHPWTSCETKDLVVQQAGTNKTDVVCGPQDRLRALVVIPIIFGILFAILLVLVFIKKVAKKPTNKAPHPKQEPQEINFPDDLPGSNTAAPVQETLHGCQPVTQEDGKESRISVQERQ
Experiment: flow cytometry, human DCs
Output spec: scalar in µg/mL, unitless text.

- C40M104 (antibody, human IgG1, lambda, V domains shown, Variant of C40M18 (VH C40H48, VL C40L68; LCDR1 cysteine mutated); cloned as IgG1) VH: EVQLVESGGGLVQPGGSLRLSCAASGFTFSSYAMSWVRQAPGKGLEWVSIINNNVGRTYYADSVKGRFTISRDNSKNTLYLQMNSLRAEDTAVYYCAKEGGDYYYYGMDVWGQGTTVTVSS VL: SYELTQPPSVSVSPGQTASITCSGDKLGDKYVSWYQQKPGQSPVVVIYQDSKRPSGIPERFSGSNSGNTATLTISGTQAMDEAYYYCQAWVSSTVVFGGGTKLTVLG: 0.253
- C40M105 (antibody, human IgG1, lambda, V domains shown) VH: QLQLQESGPGLVKPSETLSLTCTVSGGSISSSSYYWGWIRQPPGKGLEWIGNIYYRGDTYYSPSLKSRVTISVDTSKNQFSLKLSSVTAADTAVYYCARGFRFDYWGQGTLVTVSS VL: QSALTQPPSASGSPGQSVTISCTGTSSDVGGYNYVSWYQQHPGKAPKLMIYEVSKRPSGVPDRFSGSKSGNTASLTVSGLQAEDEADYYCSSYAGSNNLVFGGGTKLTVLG: 5.76

Please look up its EC50: C40M9 (antibody, human IgG1, lambda, V domains shown) VH: QLQLQESGPGLVKPSEILSLTCTVSGGSISSSSYYWGWIRQPPGKGLEWIGNIYYRGDTYYSPSLKSRVTISVDTSKNQFSLKLNSVTAADTAVYYCAKGFRFDYWGQGTLVTVSS VL: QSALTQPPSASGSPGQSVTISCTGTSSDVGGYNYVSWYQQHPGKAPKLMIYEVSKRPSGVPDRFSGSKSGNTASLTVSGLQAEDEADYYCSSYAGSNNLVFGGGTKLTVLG
0.152
